System: Streptococcus sp.
Assay: In vitro antibacterial evaluation: minimum inhibitory concentration (MIC), broth dilution method
Type: cell-based
Settings: Streptococcus pyogenes (GC 4563); 18 hours at 35° C.
// MIC Streptococcus pyogenes (GC 4563) lookup, one value per entry
Field format: number, assumed µg/mL, no unit text.

Would you please look over these solved cases?
CCCOc1ccc(COCC2OC(OC3C(CO)OC(Oc4ccc(CC5NC(=O)C(C(C)c6ccccc6)NC(=O)CNC(=O)C(CO)NC(=O)C(C(O)C6CNC(=N)N6C6OC(CO)C(O)C(O)C6O)NC(=O)C(C(O)C6CNC(=N)N6)NC5=O)cc4)C(O)C3O)C(O)C(O)C2O)cc1 (stereo not shown) : 0.25
COc1ccc2cc(COCC3OC(OC4C(CO)OC(Oc5ccc(CC6NC(=O)C(C(C)c7ccccc7)NC(=O)CNC(=O)C(CO)NC(=O)C(C(O)C7CNC(=N)N7C7OC(CO)C(O)C(O)C7O)NC(=O)C(C(O)C7CNC(=N)N7)NC6=O)cc5)C(O)C4O)C(O)C(O)C3O)ccc2c1 (stereo not shown) : 0.25
COc1ccc(COCC2OC(OC3C(CO)OC(Oc4ccc(CC5NC(=O)C(C(C)c6ccccc6)NC(=O)CNC(=O)C(CO)NC(=O)C(C(O)C6CNC(=N)N6C6OC(CO)C(O)C(O)C6O)NC(=O)C(C(O)C6CNC(=N)N6)NC5=O)cc4)C(O)C3O)C(O)C(O)C2O)cc1 (stereo not shown) : 2

The recorded MIC Streptococcus pyogenes (GC 4563) for COc1ccc2cc(COC3C(OC4C(CO)OC(Oc5ccc(CC6NC(=O)C(C(C)c7ccccc7)NC(=O)CNC(=O)C(CO)NC(=O)C(C(O)C7CNC(=N)N7C7OC(CO)C(O)C(O)C7O)NC(=O)C(C(O)C7CNC(=N)N7)NC6=O)cc5)C(O)C4O)OC(CO)C(O)C3O)ccc2c1 (stereo not shown) [Example 230c] is 64

The recorded MIC Streptococcus pyogenes (GC 4563) for COc1ccc2cc(COCC3OC(OC4C(CO)OC(Oc5ccc(CC6NC(=O)C(C(C)c7ccccc7)NC(=O)CNC(=O)C(CO)NC(=O)C(CC7CNC(=N)N7C7OC(CO)C(O)C(O)C7O)NC(=O)C(CC7CNC(=N)N7)NC6=O)cc5)C(O)C4O)C(O)C(O)C3O)ccc2c1 (stereo not shown) is 4

###

// MIC Streptococcus agalactiae (GC 4564) lookup, one value per entry
System: Streptococcus sp.
Experiment: In vitro antibacterial evaluation: minimum inhibitory concentration (MIC), broth dilution method
Assay type: cell-based
Settings: strain GC 4564
Numbered stars: 1 amine (or outer) side, 2 acyl side, 3 side chain; on linkers, the order of the positions; unused ones are H or OH. Square brackets hold non-standard residues; d marks the D form. Peptide text beside a SMILES is read from it. * marks the point of attachment. ξ: configuration not given here. X1 = N=C1NCC(C(O)C(N[*:1])C(=O)[*:2])N1C1OC(CO)C(O)C(O)C1O; ξEnduracididine(βξ-OH,4'ξ) = N=C1NCC(C(O)C(N)C(=O)O)N1; X2 = OCC1OC(OC2C(CO)OC(*)C(O)C2O)C(O)C(O)C1O; Diphenylacetyl = O=C(C(c1ccccc1)c1ccccc1)*; ξPhe(βξ-Me) = CC(c1ccccc1)C(N)C(=O)O
Field format: number, assumed µg/mL, no unit text.

CCCCCCN=C1NCC(C(O)C2NC(=O)C(C(O)C3CNC(=N)N3)NC(=O)C(Cc3ccc(OC4OC(CO)C(OC5OC6COC7(OC6C(O)C5O)C5CC6CC(C5)CC7C6)C(O)C4O)cc3)NC(=O)C(C(C)c3ccccc3)NC(=O)CNC(=O)C(CO)NC2=O)N1C1OC(CO)C(O)C(O)C1O (stereo not shown) : 1
CC(c1ccccc1)C1NC(=O)CNC(=O)C(COC(=O)C(c2ccccc2)c2ccccc2)NC(=O)C(C(O)C2CNC(=N)N2C2OC(CO)C(O)C(O)C2O)NC(=O)C(C(O)C2CNC(=N)N2)NC(=O)C(Cc2ccc(OC3OC(CO)C(OC4OC(CO)C(O)C(O)C4O)C(O)C3O)cc2)NC1=O (stereo not drawn) [Example 96a] (cyclo(G[ξPhe(βξ-Me)]Y(X2)[ξEnduracididine(βξ-OH,4'ξ)][X1]S(Diphenylacetyl)); configuration not given here) : 32

Here is the next item to consider.
The recorded MIC Streptococcus agalactiae (GC 4564) for COc1cccc(C2OC3C(OC4C(CO)OC(Oc5ccc(CC6NC(=O)C(C(C)c7ccccc7)NC(=O)CNC(=O)C(CO)NC(=O)C(C(O)C7CNC(=N)N7C7OC(CO)C(O)C(O)C7O)NC(=O)C(C(O)C7CNC(=N)N7)NC6=O)cc5)C(O)C4O)OC(CO)C(O)C3O2)c1 (single isomer, unassigned) [Example 137b] is 4

###

Tested on: Enterococcus sp.
Assay: In vitro antibacterial evaluation: minimum inhibitory concentration (MIC), broth dilution method
Type: cell-based
Details: broth dilution, inoculum 5×10^5 CFU/mL, 18 hours at 35° C.
measurement-kind: MIC Enterococcus faecalis (GC 2691) (µg/mL)
Field format: number, assumed µg/mL, no unit text.

CC(C1CCCCC1)C1NC(=O)CNC(=O)C(CO)NC(=O)C(C(O)C2CNC(=N)N2C2OC(CO)C(O)C(O)C2O)NC(=O)C(C(O)C2CNC(=N)N2)NC(=O)C(Cc2ccc(OC3OC(CO)C(OC4OC5COC6(OC5C(O)C4O)C4CC5CC(C4)CC6C5)C(O)C3O)cc2)NC1=O (stereo not drawn) : 2

The recorded MIC Enterococcus faecalis (GC 2691) for CC(c1ccc(Cl)cc1)C1NC(=O)CNC(=O)C(CO)NC(=O)C(C(O)C2CNC(=N)N2C2OC(CO)C(O)C(O)C2O)NC(=O)C(C(O)C2CNC(=N)N2)NC(=O)C(Cc2ccc(OC3OC(CO)C(OC4OC5COC(c6ccccc6)OC5C(O)C4O)C(O)C3O)cc2)NC1=O (stereo not drawn) is 0.5

The recorded MIC Enterococcus faecalis (GC 2691) for CC(c1ccccc1)C1NC(=O)CNC(=O)C(CO)NC(=O)C(C(O)C2CNC(=N)N2C2OC(CO)C(O)C(O)C2O)NC(=O)C(C(O)C2CNC(=N)N2)NC(=O)C(Cc2ccc(OC3OC(CO)C(OC4OC5COC(c6ccc(C(=O)c7cc(I)c(I)c(I)c7)cc6)OC5C(O)C4O)C(O)C3O)cc2)NC1=O (stereo not drawn) is 16

###

System: Staphylococcus sp.
Experiment: In vitro antibacterial evaluation: minimum inhibitory concentration (MIC), broth dilution method
Format: cell-based
Details: strain GC 4547; broth dilution, 18 hours at 35° C.
measurement-kind: MIC Coagulase Negative Staphylococcus (GC 4547) (mg/L)
Field format: number, assumed mg/L, no unit text.

The recorded MIC Coagulase Negative Staphylococcus (GC 4547) for CC(c1ccccc1)C1NC(=O)CNC(=O)C(CO)NC(=O)C(C(O)C2CNC(=N)N2C2OC(CO)C(O)C(O)C2O)NC(=O)C(C(O)C2CNC(=N)N2)NC(=O)C(Cc2ccc(OC3OC(COC(=O)CCC4CCCC4)C(OC4OC(CO)C(O)C(O)C4O)C(O)C3O)cc2)NC1=O (centres unmarked) [Example 100b] is 1

###

Tested on: Streptococcus sp.
Assay: In vitro antibacterial evaluation: minimum inhibitory concentration (MIC), broth dilution method
Type: cell-based
Conditions: Streptococcus pneumoniae (GC 4565); broth dilution, 18 hours at 35° C.
// MIC Streptococcus pneumoniae (GC 4565) lookup, one value per entry

Would you please look over these solved cases?
COc1cc(-c2nc3cc(CC4NC(=O)C(C(C)c5ccccc5)NC(=O)CNC(=O)C(CO)NC(=O)C(C(O)C5CNC(=N)N5C5OC(CO)C(O)C(O)C5O)NC(=O)C(C(O)C5CNC(=N)N5)NC4=O)ccc3o2)cc(OC)c1OC (stereo not shown) : 32 µg/mL
CCCCCCCN1CC(C(O)C2NC(=O)C(C(O)C3CNC(=N)N3)NC(=O)C(Cc3ccc(OC4OC(CO)C(OC5OC6COC7(OC6C(O)C5O)C5CC6CC(C5)CC7C6)C(O)C4O)cc3)NC(=O)C(C(C)c3ccccc3)NC(=O)CNC(=O)C(CO)NC2=O)N(C2OC(CO)C(O)C(O)C2O)C1=N (stereo not shown) : 0.25 µg/mL

The recorded MIC Streptococcus pneumoniae (GC 4565) for CC(C1CCCCC1)C1NC(=O)CNC(=O)C(CO)NC(=O)C(C(O)C2CNC(=N)N2C2OC(CO)C(O)C(O)C2O)NC(=O)C(C(O)C2CNC(=N)N2)NC(=O)C(CC2CCC(OC3OC(CO)C(OC4OC(CO)C(O)C(O)C4O)C(O)C3O)CC2)NC1=O (stereo not shown) [Example 53a] is 64 µg/mL

The recorded MIC Streptococcus pneumoniae (GC 4565) for CC(c1ccccc1)C1NC(=O)CNC(=O)C(CO)NC(=O)C(C(O)C2CN(c3nc4ccccc4s3)C(=N)N2C2OC(CO)C(O)C(O)C2O)NC(=O)C(C(O)C2CNC(=Nc3nc4ccccc4s3)N2)NC(=O)C(Cc2ccc(OC3OC(CO)C(OC4OC(CO)C(O)C(O)C4O)C(O)C3O)cc2)NC1=O (stereo not shown) is >64 µg/mL

From: patent US8247211B2
